Tested on: femoral artery
PROTOCOL: Vasodilator activity, femoral artery (technique of perfused paw)
Type: in vivo
Design: key: O: no action; +: slight activity; ++: effect equal to half the effect of papaverine; +++: effect equal to that of papaverine; ++++: effect higher than that of papaverine
REPORTED_CONDITIONS: intra-arterial, 30 mg/kg, anaesthetized dog, vs papaverine at same dose
READOUT_LABEL: VASODILATOR ACTIVITY

Record excerpt, results attached:
Known value: femoral artery VASODILATOR ACTIVITY of the compound CC(NCCOc1ccccc1)C(O)c1ccc2c(c1)CCCCS2 (stereo not shown) equals +++

Record CC1Cc2cc(C(O)C(C)NCCCCc3ccccc3)ccc2S1 (stereo not shown) / femoral artery, VASODILATOR ACTIVITY recorded as +++

Form field VASODILATOR ACTIVITY for item CC(NCCC(c1ccccc1)c1ccccc1)C(O)c1ccc2c(c1)CCCS2 (stereo not shown) on femoral artery: +++

Fill in: femoral artery VASODILATOR ACTIVITY for CCCCCCCCNC(C)C(O)c1ccc2c(c1)SCCO2 (stereo not shown) = +++

Field VASODILATOR ACTIVITY (femoral artery), entry CCCCSCCCNC(C)C(O)c1ccc2c(c1)CCC2 (stereo not shown) : ++++

Each of the following entries comes with a recorded value; kindly state VASODILATOR ACTIVITY for each.
1. CCCCCCCCNC(C)C(O)c1ccc2c(c1)CC(C)CS2 (stereo not shown)
2. CC1Cc2cc(C(O)C(C)NCCCCc3ccccc3)ccc2O1 (stereo not shown)
3. CC(NCCCc1ccccc1)C(O)c1ccc2c(c1)CCS2 (stereo not shown)

1: +++; 2: ++; 3: +++

Consider the following items and state reported VASODILATOR ACTIVITY for each.
1. CC(NCCOc1ccc2c(c1)CCC2)C(O)c1ccc2c(c1)CCCS2 (stereo not shown)
2. CC(=O)Nc1ccc(OCCNC(C)C(O)c2ccc3c(c2)CCCS3)cc1 (stereo not shown)

+++
+++
